System: MCF7 breast
Test: NCI tumour cell line growth inhibition, 48 h
We begin with a simple list: items and their reported TGI.
Give your result in µM as a bare value.

Take a look at these entries with their results.
{"columns": ["COMPOUND STRUCTURE STRING", "TGI [µM]"],
 "data": [
  ["O=C(NS(=O)(=O)Nc1ccc(Cl)cc1)OCc1ccc(Cl)cc1Cl", 31.9],
  ["O=C(CCN1CCN(c2cnc3ccccc3n2)CC1)c1csc2ccccc12", 48.6]
]}

Kindly review the next compound as well.
So, `CN1CCN(Cc2ccc(C(=O)Nc3cncc(C#Cc4cnc(N)c5ccccc45)c3)cc2C(F)(F)F)CC1` ? Its TGI was 3.39

###

System: ACHN renal
Test: NCI tumour cell line growth inhibition, 48 h
MEASURED ATTRIBUTE: TGI (µM)
Give your result in µM as a bare value.

Take a look at these entries with their results.
{"columns": ["MOLECULE", "TARGET", "TGI [µM]"],
 "data": [
  ["CC(C)=CCN1CC(C)C(=O)Nc2cc(Cl)ccc21 (stereo unspecified)", "ACHN renal", 67.5],
  ["CCCCN(CC)c1nc(C)nc2c1c(C)c(C)n2-c1c(C)cc(C)cc1C", "ACHN renal", 28.1]
]}

Kindly review the next molecule as well.
Form field, TGI with ACHN renal, item `C=CC(=O)c1ccc2c(c1)OCCOCCOCCOCCOCCO2` : 31.9

###

We begin with a simple list: items and their reported GI50.
Test system: SR leukemia
Assay: NCI tumour cell line growth inhibition, 48 h

Take a look at these entries with their results.
{"columns": ["MOLECULE", "RESULT"],
 "data": [
  ["Oc1ccccc1/C=N/Nc1ccc2ccccc2n1", "4350 nM"],
  ["CNC(=O)c1ccccc1CC1(O)c2ccccc2Oc2ccccc21", "6610 nM"],
  ["COc1ccc2cc1Oc1ccc(cc1)C[C@H]1c3cc(c(OC)cc3CCN1C)Oc1c(OC)c(OC)cc3c1[C@H](C2)N(C)CC3", "28.2 nM"],
  ["COC1(C(=O)N2Cc3nc(Cl)nc(N[C@H](C)c4cc(N)cc(C(F)(F)F)c4)c3C2)CCOCC1", "2920 nM"]
]}

So, `COc1cc2ncn(-c3cc(OCc4ccccc4Cl)c(C(N)=O)s3)c2cc1OC` ? Its GI50 was 113 nM

###

Tested on: SF-268 CNS
Test: NCI tumour cell line growth inhibition, 48 h
We begin with a simple list: items and their reported TGI.

Take a look at these entries with their results.
{"columns": ["MOLECULE", "TGI"],
 "data": [
  ["COC1(C)CC2N(C(=O)c3ccccc3)N=C(c3ccccc3)CC2(C)O1 (stereo not given)", "> 100 µM"],
  ["CCCCCCCCCCCCC(=O)OC(c1cnco1)c1nc(C(O)CC(O)C(O)C(C)O)co1 (stereo not given)", "> 47.3 µM"],
  ["COc1cc2ncn(-c3cc(OCc4ccccc4Cl)c(C(N)=O)s3)c2cc1OC", "> 13 µM"]
]}

So, `Fc1cccc(COc2ccc(Nc3ncncc3C#Cc3ccccc3)cc2Cl)c1` ? Its TGI was > 25 µM

So, `COC(=O)c1cc(CC(C)C)c2c(c1)[nH]c1ccccc12` ? Its TGI was > 100 µM
